Recorded exon inclusion enrichment index, one value per entry.
B1: mRNA-splicing (parent)
chain: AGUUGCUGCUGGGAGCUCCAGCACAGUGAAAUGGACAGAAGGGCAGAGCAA

Variants of: B1
Test: exon inclusion enrichment index; higher = more inclusion; WT1 exon 5 minigene, HEK293
I only need the number, thanks.

Answered examples (8):
U3C U4A C6A U7A C9A U10A = 0.528
C6A U7C C9A U10C A29G A30C = 2.23
G5A C6G U7G C9A U17C C18G = 0.00304
C44G A45U = 0.0615
G5U G8U C9U A23U C24U = 0.00337
G5A C6G U7G C9A G12C = 0.00529
G5U G8U C9U C18A C19A = 0.00397
U4G G5C C6U G8C C9U U10C = 1.14

query: Form field: reported exon inclusion enrichment index of G5C C6U G8C C9U U10C U32G G33C
result: 1.97

query: Also need G5C C6A U7C G8A U10A G21A , thanks.
result: 0.0465

query: Also need G5C C6G U7C U10C G12C G13C , thanks.
result: 0.519

query: Also need G5C C6G U7C U10C A25U G26U , thanks.
result: 3.03

query: Also need C6A U7C C9A U10C G38A A39G , thanks.
result: 2.68

query: Also need G5C C6G U7C U10C G34A A35G , thanks.
result: 2.26

query: Also need `A29G` , thanks.
result: 0.272

query: Also need G5C C6A U7C G8A U10A A31C U32C , thanks.
result: 0.385
